biological target: EML4-ALK-BaF3 (Homo sapiens, UniProt Q9UM73); construct: expressed in transfected cells; host or cells: Ba/F3 cells; the other entry of the earlier key: EML4 (Q9HC35, Echinoderm microtubule-associated protein-like 4); assay: Growth inhibition of EML4-ALK transformed BaF3 cells (MTS); type: cell-based; conditions: EML4-ALK-BaF3 cells, 48 hours, MTS; Table 11
Sequence (Q9UM73 1058-1620 limits assumed): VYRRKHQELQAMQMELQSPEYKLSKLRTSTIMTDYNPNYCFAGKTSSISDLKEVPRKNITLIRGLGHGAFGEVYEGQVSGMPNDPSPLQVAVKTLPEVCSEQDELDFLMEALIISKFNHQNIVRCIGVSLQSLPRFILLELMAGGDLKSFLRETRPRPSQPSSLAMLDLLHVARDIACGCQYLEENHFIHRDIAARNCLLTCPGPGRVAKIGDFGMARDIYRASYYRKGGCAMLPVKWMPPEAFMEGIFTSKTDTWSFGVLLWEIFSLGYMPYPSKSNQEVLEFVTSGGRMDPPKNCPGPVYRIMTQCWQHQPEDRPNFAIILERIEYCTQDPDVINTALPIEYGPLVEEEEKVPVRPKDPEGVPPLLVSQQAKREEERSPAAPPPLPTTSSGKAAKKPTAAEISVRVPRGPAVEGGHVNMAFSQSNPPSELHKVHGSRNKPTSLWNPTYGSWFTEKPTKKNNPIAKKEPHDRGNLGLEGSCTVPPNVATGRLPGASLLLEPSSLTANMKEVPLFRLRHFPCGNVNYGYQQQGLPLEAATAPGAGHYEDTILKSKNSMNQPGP
property: log10 of IC50 (log10 of the value in nM)

1) COC(=O)c1ccccc1Nc1nc(Nc2ccc(N3CCOCC3)cc2)nc2cc[nH]c12 = 3.89
2) OC1CCN(c2ccc(Nc3nc(NC4CC4)c4[nH]ccc4n3)cc2)CC1 = 3.65
3) COC(=O)c1ccccc1Nc1nc(Nc2ccc(N3CCN(C)CC3)cc2OC)nc2cc[nH]c12 = 3.17
4) COc1cc(C2CCN(C)CC2)c(C)cc1Nc1nc(Nc2ccccc2S(=O)(=O)C(C)C)c2[nH]ccc2n1 = 2.74
5) CC(C)S(=O)(=O)c1ccccc1Nc1nc(Nc2ccc(N3CCC(O)CC3)cc2)nc2cc[nH]c12 = 3.46
6) COc1cc(N2CCC(N3CCN(C)CC3)CC2)ccc1Nc1nc(Nc2ccccc2S(C)(=O)=O)c2[nH]ccc2n1 = 3.57
7) CC(C)Sc1ccccc1CNc1nc(Nc2ccc(N3CCC(O)CC3)cc2)nc2cc[nH]c12 = 3.09
8) CSc1ccccc1Nc1nc(Nc2ccc(N3CCC(O)CC3)cc2)nc2cc[nH]c12 = 2.81
9) COC(=O)c1sccc1Nc1nc(Nc2ccc(N3CCC(N4CCN(C)CC4)CC3)cc2OC)nc2cc[nH]c12 = 2.83

---

target: EML4-ALK (L1196M)-BaF3 (Homo sapiens, UniProt Q9UM73, L1196M); construct: expressed in transfected cells; host or cells: Ba/F3 cells; the other entry of the earlier key: EML4 (Q9HC35, Echinoderm microtubule-associated protein-like 4); experiment: Growth inhibition of EML4-ALK (L1196M) transformed BaF3 cells (MTS); type: cell-based; conditions: 48 hours, Table 12, read-out: L1196M (IC50 nM)
IC50: recorded values
property: IC50 (nM)

1. COc1cc(N2CCN(C)CC2)ccc1Nc1nc(NCc2ccccc2SC(C)C)c2c(ccn2C)n1 [IIJ-1] = 544
2. COc1cc(N2CCC(N3CCN(C)CC3)CC2)ccc1Nc1nc(Nc2ccccc2SC)c2c(ccn2C)n1 [IIA-2] = 1620
3. Cc1cc(Nc2nc(Nc3ccccc3S(=O)(=O)C(C)C)c3c(ccn3C)n2)c(OC(C)C)cc1C1CCN(C)CC1 [IID-8] = 4770
4. Cn1ccc2nc(Nc3ccc(N4CCC(O)CC4)cc3)nc(Nc3ccccc3S(C)(=O)=O)c21 [IIC-3] = 8990
5. COC(=O)c1cccc(Nc2nc(Nc3ccc(N4CCC(O)CC4)cc3)nc3ccn(C)c23)c1 [IIH-2] = 1810

---

Target: EML4-ALK (L1196M)-BaF3 (Homo sapiens, UniProt Q9UM73, L1196M)
Construct: expressed in transfected cells; host or cells: Ba/F3 cells; the other entry of the earlier key: EML4 (Q9HC35, Echinoderm microtubule-associated protein-like 4)
Experiment: Growth inhibition of EML4-ALK (L1196M) transformed BaF3 cells (MTS)
Format: cell-based
Details: 48 hours, Table 11, read-out: EML4-ALK (L1196M) (IC50 nM)
Method: If compounds can inhibit the activity of ALK kinase or the activity of ALK signaling pathway, they can inhibit the growth of ALK transformed Ba/F3 cells. […] The broad-spectrum toxicity of compounds can be evaluated by determining the effect of the compounds on the growth of wild type BaF3 cells. […] 4) Calculation of IC50 value: the semi inhibitory concentration of the compound acting on the cells was calculated using GradPad Prism 5 software according to the cell inhibitory rate measured.
IC50: recorded values
property: IC50

1) CC(C)S(=O)(=O)c1ccccc1CNc1nc(Nc2ccc(S(N)(=O)=O)cc2)nc2cc[nH]c12 = > 10000 nM
2) COC(=O)c1ccccc1Oc1nc(Nc2ccc(S(N)(=O)=O)cc2)nc2cc[nH]c12 = > 10000 nM
3) CCNc1nc(Nc2ccc(N3CCN(C)CC3)cc2OC)nc2cc[nH]c12 = > 10000 nM
4) CNc1nc(Nc2ccc(S(N)(=O)=O)cc2)nc2cc[nH]c12 = > 10000 nM
5) CNc1nc(Nc2ccc(N3CCC(N4CCN(C)CC4)CC3)cc2OC)nc2cc[nH]c12 = > 10000 nM
6) CS(=O)(=O)c1ccccc1CNc1nc(Nc2ccc(N3CCC(O)CC3)cc2)nc2cc[nH]c12 = > 10000 nM
7) CCNc1nc(Nc2ccc(N3CCC(O)CC3)cc2)nc2cc[nH]c12 = > 10000 nM
8) COC(=O)c1cccc(Nc2nc(Nc3ccc(N4CCN(C)CC4)cc3OC)nc3cc[nH]c23)c1 = ~2630 nM
9) COc1cc(N2CCN(C)CC2)ccc1Nc1nc(Nc2ccccc2S(C)(=O)=O)c2[nH]ccc2n1 = ~7250 nM
10) CC(C)Sc1ccccc1CNc1nc(Nc2ccc(S(N)(=O)=O)cc2)nc2cc[nH]c12 = > 10000 nM
11) COC(=O)c1ccccc1Nc1nc(Nc2ccc(N3CCN(C)CC3)cn2)nc2cc[nH]c12 = > 10000 nM
12) COc1cc(N2CCC(N3CCN(C)CC3)CC2)ccc1Nc1nc(Nc2ccccc2S(C)(=O)=O)c2[nH]ccc2n1 = ~6860 nM
13) CC(C)S(=O)(=O)c1ccccc1Nc1nc(Nc2cnn(C3CCN(C)CC3)c2)nc2cc[nH]c12 = 5680 nM
14) CNC(=O)c1ccccc1Nc1nc(Nc2ccc(N3CCC(N4CCN(C)CC4)CC3)cc2OC)nc2cc[nH]c12 = 3940 nM
15) COc1cc(C2CCN(C)CC2)c(C)cc1Nc1nc(Nc2ccccc2S(=O)(=O)C(C)C)c2[nH]ccc2n1 = ~1080 nM
16) COC(=O)c1ccccc1Sc1nc(Nc2ccc(N3CCC(N4CCCC4)CC3)cc2OC)nc2cc[nH]c12 = ~2510 nM
17) COC(=O)c1ccccc1Nc1nc(Nc2ccc(N3CCC(N4CCCC4)CC3)cc2OC)nc2cc[nH]c12 = 409 nM
18) CC(C)S(=O)(=O)c1ccccc1Nc1nc(Nc2ccc(N3CCC(O)CC3)cc2)nc2cc[nH]c12 = 6150 nM
19) CS(=O)(=O)c1ccccc1CNc1nc(Nc2ccc(S(N)(=O)=O)cc2)nc2cc[nH]c12 = > 10000 nM
20) CSc1ccccc1Nc1nc(Nc2ccc(S(N)(=O)=O)cc2)nc2cc[nH]c12 = 6630 nM
21) COC(=O)c1ccccc1Oc1nc(Nc2ccc(N3CCC(N4CCN(C)CC4)CC3)cc2OC)nc2cc[nH]c12 = 3960 nM
22) CNc1nc(Nc2ccc(C(=O)N3CCOCC3)cc2OC)nc2cc[nH]c12 = > 10000 nM

meta.source: patent US10508118B2
